Quick list: pKd per entry.
biological target: L38R; test: SPR; 25 C
Quick note: pKd values are minus log10 of concentrations in mol/L.

Task: Output measured pKd for this item: Activin A (ligand) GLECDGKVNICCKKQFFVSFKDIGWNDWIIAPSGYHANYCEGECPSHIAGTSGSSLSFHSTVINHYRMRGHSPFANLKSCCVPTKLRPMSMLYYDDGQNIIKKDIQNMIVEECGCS
Result: 9.64

Task: Output measured pKd for this item: BMP9 (ligand) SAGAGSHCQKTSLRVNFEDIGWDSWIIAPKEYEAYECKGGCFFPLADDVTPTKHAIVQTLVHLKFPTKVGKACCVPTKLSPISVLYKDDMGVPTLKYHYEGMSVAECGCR
Result: 10.30

Task: Output measured pKd for this item: GDF11 (ligand) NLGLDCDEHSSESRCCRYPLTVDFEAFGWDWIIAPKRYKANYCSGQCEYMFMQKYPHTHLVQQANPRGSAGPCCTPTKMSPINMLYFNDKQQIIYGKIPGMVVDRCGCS
Result: 11.15

Task: Output measured pKd for this item: BMP10 (ligand) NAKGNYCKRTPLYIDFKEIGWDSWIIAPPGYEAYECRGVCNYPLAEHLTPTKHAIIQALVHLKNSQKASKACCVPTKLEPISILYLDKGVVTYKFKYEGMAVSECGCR
Result: 9.96
